The reported numbers originate from paper PMC3952852.

pIC50: −log10 of the molar value.
Observable: pIC50

## Input Requested read-out pIC50, target or system PKCα (Homo sapiens), entry COc1c(C=O)c(O)cc2c1C(=O)c1ccccc1C2=O [Dam]
## Output < 4.70

###

pIC50: −log10 of the molar value.
Observable: pIC50

## Input # returns recorded pIC50 (system: ROCK (Homo sapiens, UniProt Q13464)) for COc1c(C=O)c(O)cc2c1C(=O)c1ccccc1C2=O [Dam]
Sequence (Q13464 1-727): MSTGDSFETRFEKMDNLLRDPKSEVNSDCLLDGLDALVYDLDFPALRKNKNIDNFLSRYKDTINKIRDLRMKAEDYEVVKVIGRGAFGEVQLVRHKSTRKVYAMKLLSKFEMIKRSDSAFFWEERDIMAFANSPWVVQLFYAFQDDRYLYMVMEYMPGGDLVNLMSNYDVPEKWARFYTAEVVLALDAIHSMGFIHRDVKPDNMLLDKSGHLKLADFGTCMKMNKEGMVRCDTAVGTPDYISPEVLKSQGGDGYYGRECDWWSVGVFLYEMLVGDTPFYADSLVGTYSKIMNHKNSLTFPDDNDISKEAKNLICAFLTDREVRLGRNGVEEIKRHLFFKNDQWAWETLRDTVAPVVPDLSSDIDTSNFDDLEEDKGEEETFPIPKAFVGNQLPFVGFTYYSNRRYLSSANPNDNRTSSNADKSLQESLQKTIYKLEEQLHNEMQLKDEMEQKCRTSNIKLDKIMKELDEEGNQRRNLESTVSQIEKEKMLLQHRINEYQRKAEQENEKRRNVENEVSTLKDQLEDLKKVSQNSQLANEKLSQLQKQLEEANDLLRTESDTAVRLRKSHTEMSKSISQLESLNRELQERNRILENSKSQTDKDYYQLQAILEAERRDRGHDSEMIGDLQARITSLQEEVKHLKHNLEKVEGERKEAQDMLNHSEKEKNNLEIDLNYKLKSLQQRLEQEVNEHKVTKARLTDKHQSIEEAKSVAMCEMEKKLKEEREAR
## Output < 4.70

###

pIC50: −log10 of the molar value.
Observable: pIC50

## Input Recorded pIC50 for COc1c(C=O)c(O)cc2c1C(=O)c1ccccc1C2=O [Dam] with PAK3 (Homo sapiens, UniProt O75914), please?
## Output < 4.70
